From: patent US20260191981A1

target: T1, his-tagged cTfR1 (Acro Biosystems p/n TFR-C524a) (cynomolgus monkey, UniProt H9EXL1 89-760 (rhesus entry)); assay: SPR, Biacore X100, His-tagged TfR1 captured by anti-His
T1 construct: Bought reagent of the SPR assay
T1 sequence (chain, as listed by the source): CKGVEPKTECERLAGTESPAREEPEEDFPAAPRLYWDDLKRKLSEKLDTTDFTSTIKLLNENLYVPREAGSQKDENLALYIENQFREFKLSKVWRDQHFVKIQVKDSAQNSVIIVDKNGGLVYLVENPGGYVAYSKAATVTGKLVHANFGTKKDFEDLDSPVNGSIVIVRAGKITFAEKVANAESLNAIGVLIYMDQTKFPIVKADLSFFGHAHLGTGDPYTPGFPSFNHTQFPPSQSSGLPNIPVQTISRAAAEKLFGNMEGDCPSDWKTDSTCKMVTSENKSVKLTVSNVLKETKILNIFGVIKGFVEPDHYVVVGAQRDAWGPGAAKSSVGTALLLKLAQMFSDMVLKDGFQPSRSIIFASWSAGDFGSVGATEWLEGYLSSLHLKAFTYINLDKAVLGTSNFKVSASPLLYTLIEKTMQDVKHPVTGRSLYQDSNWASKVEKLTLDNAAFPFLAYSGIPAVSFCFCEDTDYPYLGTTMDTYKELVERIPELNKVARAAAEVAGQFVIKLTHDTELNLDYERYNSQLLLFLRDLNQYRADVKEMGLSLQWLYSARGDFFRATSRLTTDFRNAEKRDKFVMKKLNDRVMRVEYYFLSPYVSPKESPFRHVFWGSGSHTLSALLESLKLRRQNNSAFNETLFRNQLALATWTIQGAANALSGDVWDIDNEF
readout: koff (s⁻¹)
Express it in s⁻¹; write the number only.

Return reported koff. Input binder: Fab0061 (Fab, V domains shown) VH: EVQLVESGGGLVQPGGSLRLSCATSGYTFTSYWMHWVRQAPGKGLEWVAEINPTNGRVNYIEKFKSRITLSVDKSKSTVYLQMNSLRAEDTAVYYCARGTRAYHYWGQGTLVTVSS VL: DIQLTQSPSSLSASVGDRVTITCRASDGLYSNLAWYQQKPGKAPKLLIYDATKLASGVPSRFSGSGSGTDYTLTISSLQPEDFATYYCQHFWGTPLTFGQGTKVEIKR
0.0037
